Molecular target: ABCD2 WT (Homo sapiens)
Sequence (Q9UBJ2 1-740): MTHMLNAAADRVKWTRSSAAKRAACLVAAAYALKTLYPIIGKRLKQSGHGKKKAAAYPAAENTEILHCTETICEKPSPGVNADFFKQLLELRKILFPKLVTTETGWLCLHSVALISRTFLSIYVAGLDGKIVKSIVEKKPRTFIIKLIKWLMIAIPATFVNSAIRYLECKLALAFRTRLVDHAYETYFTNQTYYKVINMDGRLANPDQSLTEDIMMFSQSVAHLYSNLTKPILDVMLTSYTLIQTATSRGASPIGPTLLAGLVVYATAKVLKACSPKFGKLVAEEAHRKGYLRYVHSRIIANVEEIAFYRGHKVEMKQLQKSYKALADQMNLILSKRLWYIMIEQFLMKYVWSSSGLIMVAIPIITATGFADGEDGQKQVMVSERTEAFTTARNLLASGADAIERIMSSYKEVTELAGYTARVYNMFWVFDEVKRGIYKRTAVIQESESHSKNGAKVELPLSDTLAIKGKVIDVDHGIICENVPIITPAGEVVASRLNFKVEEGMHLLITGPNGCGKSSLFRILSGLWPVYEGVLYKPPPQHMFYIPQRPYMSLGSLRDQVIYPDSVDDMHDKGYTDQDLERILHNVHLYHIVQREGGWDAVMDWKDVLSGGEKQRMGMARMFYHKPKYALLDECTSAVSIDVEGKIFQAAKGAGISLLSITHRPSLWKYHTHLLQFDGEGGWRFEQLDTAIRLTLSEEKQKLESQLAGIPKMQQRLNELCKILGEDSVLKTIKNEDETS
Test: D2 correction dose-response assay: ABCD2 WT HiBit protein expression
Details: HEK-293/ABCD2 WT cells, 24 hours treatment, HiBit luminescence; class combines EC50 and Mean MaxAct (fold); read-out: ABCD2 WT EC50, Emax
The entries below are paired with their reported EC50.

- Cc1nc(C2CC2)c(Cl)cc1Oc1nc(-c2cncc(C#N)c2)ccc1NS(C)(=O)=O [Compound I-120]: 1000 to 10000 nM
- Cc1cc(C)c(Oc2nc(-c3cncc(Cl)c3)ccc2S(=O)(=O)N(C)Cc2ccccc2)c(C)c1 [Compound I-85]: 1000 to 10000 nM
- CS(=O)(=O)Nc1ccc(-c2cncc(C#N)c2)nc1Oc1c(C2CC2)nc(C(F)(F)F)nc1C1CC1 [Compound I-138]: < 1000 nM
- Cc1nc(C)c(C2CC2)cc1Oc1nc(-c2cncc(C#N)c2)ccc1NS(C)(=O)=O [Compound I-229]: 1000 to 10000 nM

Ask: Hello, please tell me recorded EC50 for this one: Cc1cc(C)c(Oc2nc(N3C4CC3CN(C(=O)C3CC3)C4)ccc2NS(C)(=O)=O)c(C)c1 [Compound I-35]
Result: > 25000 nM

Ask: Hello, please tell me recorded EC50 for this one: Cc1cc(C(F)(F)F)nc(C2CC2)c1Oc1nc(-c2cncc(C#N)c2)ccc1S(=N)(=O)c1cnccn1 (stereo not shown) [Compound I-297]
Result: 1000 to 10000 nM

Ask: Hello, please tell me recorded EC50 for this one: COCc1cncc(-c2ccc(NS(C)(=O)=O)c(Oc3c(C)cc(C)nc3C)n2)c1 [Compound I-231]
Result: < 1000 nM
